measured target: T1, mouse IL-2Rα, recombinant protein (mouse, UniProt P01590 22-236, limits assumed)
T1 construct: also called moIL2R-a
T1 sequence (looked up): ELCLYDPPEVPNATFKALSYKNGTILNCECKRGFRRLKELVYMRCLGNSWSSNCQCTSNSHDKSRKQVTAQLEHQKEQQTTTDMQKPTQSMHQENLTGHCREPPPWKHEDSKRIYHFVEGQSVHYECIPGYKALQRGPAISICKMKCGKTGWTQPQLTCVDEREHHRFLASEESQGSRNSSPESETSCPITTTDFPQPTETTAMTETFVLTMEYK
test details: P.E. binding ELISA
readout name: OD450 nm (OD450 nm)

- binder: "12-MP05B12 VHH (periplasmic extract) (VHH, soluble VHH in periplasmic extract) VHH: QVQLVESGGGLVQAGGSLRLSCAASGFTFDGYAIGWFRQAPGKEREGVSYITGSDGSTYYADSVKGRFTISSNNAKNTVYLHMNSLKPDDAAVYYCAIDRLGSRGAYVPIWWRSSDMDLWGKGTLVTVSS"
  reading: 0.936
- binder: "9-MP05G01 VHH (periplasmic extract) (VHH, soluble VHH in periplasmic extract) VHH: EVQLVESGGGLVQAGGSLRLSCAASGGSIYTYNMGWFRQAPGKEREFVAGTLWSGGDSVYADFAKGRFTLSRENAKNTLYLQMNSLKPEDTATYYCAIDPLSLTSDWRVDELSSWGKGTLVTVSS"
  reading: 0.047
- binder: "11-MP05H04 VHH (periplasmic extract) (VHH, soluble VHH in periplasmic extract) VHH: QLQLVESGGGLVQAGGSLRLSCAASGLTFEGYAIGWFRQAPGKEREGVSYITGSDGTTYYINSVKGRFTISSDNAKSTVYLQMNTLKPEDTAVYYCAVDRLGSQGRYASAWWRSGDMDLWGKGTQVTVSS"
  reading: 0.163
- binder: "4-MP01F04 VHH (periplasmic extract) (VHH, soluble VHH in periplasmic extract) VHH: QVQLVESGGGLVQAGGSLRLSCAASGGTFRTRNMGWFRRAPGKEREFVAAVSWNVDNKLYADSVKGRFTISRDNGRNMVYLQMNSLKPEDTAVYYCAADNIPLSSDMRPTATEYDYWGQGTQVTVSS"
  reading: 0.046
